Every entry's value here was drawn from the supplement of paper PMC10065799.

Quick list: phosphorylation enrichment per entry.
molecular target: MERTK (UniProt Q12866); experiment: phosphorylation enrichment, bacterial display (enrichment ratio); higher = better substrate or ligand; peptides without Tyr show the background;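 further: 11-residue human phosphosite peptides and single-mutation variants displayed on the E. coli surface, counted by deep sequencing, each peptide's frequency after selection divided by its frequency in the unselected input library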;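 further: frequency after pTyr selection over input frequency; kinase dosed for 20-30% of maximal phosphorylation in three min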
Sequence (Q12866 whole entry, looked up): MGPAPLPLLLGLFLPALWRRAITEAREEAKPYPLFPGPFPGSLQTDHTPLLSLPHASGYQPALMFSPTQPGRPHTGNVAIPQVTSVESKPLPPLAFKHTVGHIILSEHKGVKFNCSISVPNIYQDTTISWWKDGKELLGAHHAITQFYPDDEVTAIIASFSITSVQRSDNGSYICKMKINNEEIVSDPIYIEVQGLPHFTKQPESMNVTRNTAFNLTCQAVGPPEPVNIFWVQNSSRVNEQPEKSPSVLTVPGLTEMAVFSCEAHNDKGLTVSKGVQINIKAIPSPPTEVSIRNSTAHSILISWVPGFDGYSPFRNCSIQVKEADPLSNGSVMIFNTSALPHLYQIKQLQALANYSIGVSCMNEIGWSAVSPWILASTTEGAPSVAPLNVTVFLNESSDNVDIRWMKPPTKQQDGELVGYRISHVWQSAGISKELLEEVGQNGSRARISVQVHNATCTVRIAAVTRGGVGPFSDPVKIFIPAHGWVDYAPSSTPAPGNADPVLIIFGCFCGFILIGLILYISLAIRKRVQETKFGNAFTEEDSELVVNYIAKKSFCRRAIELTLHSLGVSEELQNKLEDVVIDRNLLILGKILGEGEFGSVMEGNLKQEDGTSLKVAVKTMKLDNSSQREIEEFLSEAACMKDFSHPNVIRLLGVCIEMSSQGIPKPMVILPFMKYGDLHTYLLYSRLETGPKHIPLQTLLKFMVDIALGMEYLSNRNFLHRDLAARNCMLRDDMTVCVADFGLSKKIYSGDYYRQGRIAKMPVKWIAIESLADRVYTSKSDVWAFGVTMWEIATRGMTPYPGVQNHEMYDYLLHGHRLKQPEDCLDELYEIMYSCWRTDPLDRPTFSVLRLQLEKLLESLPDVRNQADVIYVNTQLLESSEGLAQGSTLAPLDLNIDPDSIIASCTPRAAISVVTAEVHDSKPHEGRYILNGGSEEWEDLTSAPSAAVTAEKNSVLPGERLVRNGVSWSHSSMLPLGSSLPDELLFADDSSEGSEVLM
Could you keep your reply to the number by itself?

Solved cases below.
> print(dat)
                    chain.sequence        experimental.readout  numeric.value
1  SLDLSYFTTSS [EMD_Y181_P183T_YF]  phosphorylation enrichment          0.371
2   CGTPTCLAPEV [CHEK2_Y390_Y390C]  phosphorylation enrichment          0.491
3    EAKENYGKTLK [CHL1_Y291_T287A]  phosphorylation enrichment          0.327
4  IDPYTYTPFGS [CYP3A4_Y432_I431T]  phosphorylation enrichment           1.16
5      RWGQKHMTAVV [CYBA_Y72_Y72H]  phosphorylation enrichment          0.587

For reference, reported phosphorylation enrichment for HCHEGYILHGA [SVEP1_Y2921] stands at 0.945

For reference, reported phosphorylation enrichment for AVLQPYIFVAT [CFTR_Y1014] stands at 0.55

For reference, reported phosphorylation enrichment for NFRPGYNNFFN [USH2A_Y467_YF] stands at 0.433

For reference, reported phosphorylation enrichment for CERFSYYGMKA [SLC15A2_Y60] stands at 0.665

For reference, reported phosphorylation enrichment for DTVRIYDDDFF [UBA1_Y560_E557V] stands at 0.592

For reference, reported phosphorylation enrichment for KIKGRYEKCEP [KRT26_Y119_W118R] stands at 0.478

For reference, reported phosphorylation enrichment for FHLLPYTIRAM [PARS2_Y93_V95I_YF] stands at 0.373

For reference, reported phosphorylation enrichment for GVRFIYTIDGS [DCX_Y105_YF] stands at 0.48

For reference, reported phosphorylation enrichment for KSFDMYSGDVM [FAM3D_Y122_A118S] stands at 0.914
